Positions of bridges follow the written chain, without caps; N, C: chain ends. Non-standard residues stand in square brackets, D forms with d. Residues, ends and D or L forms follow the SMILES beside them. Phe(4-NO2) = N[C@@H](Cc1ccc([N+](=O)[O-])cc1)C(=O)O; 2Nal = N[C@@H](Cc1ccc2ccccc2c1)C(=O)O; d2Nal = N[C@H](Cc1ccc2ccccc2c1)C(=O)O
Record: Ki reported on SSTR2 (Rattus norvegicus).
Sequence (P30680 whole entry): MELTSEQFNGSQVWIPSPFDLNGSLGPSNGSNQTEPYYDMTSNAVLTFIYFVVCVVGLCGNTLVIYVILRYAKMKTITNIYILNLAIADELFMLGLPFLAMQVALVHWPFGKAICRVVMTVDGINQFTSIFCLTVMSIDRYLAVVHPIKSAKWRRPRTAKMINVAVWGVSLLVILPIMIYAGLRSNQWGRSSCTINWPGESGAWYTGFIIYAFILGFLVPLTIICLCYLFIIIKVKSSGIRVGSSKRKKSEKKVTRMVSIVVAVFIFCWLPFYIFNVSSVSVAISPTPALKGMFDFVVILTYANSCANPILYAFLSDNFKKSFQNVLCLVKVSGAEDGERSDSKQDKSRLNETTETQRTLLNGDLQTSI
Numbers only, in nM.

Guide cases for Ki, answers given:
compound: CC(C)[C@@H]1NC(=O)[C@H](CCCCN)NC(=O)[C@@H](Cc2c[nH]c3ccccc23)NC(=O)[C@H](Cc2ccc(O)cc2)NC(=O)[C@H](NC(=O)[C@H](N)Cc2ccc3ccccc3c2)CSSC[C@@H](C(=O)N[C@@H](Cc2ccc(O)cc2)C(N)=O)NC1=O [D-Nal(2) Tyr Lys Val Tyr] (H-[d2Nal][dC]Y[dW]KVCY-NH2; disulfide 2-7)
output_unit: nM
Ki: 0.89
--
compound: CC(=O)N[C@@H](Cc1ccc([N+](=O)[O-])cc1)C(=O)N[C@@H]1CSSC[C@@H](C(=O)N[C@H](Cc2ccc(O)cc2)C(N)=O)NC(=O)[C@H]([C@@H](C)O)NC(=O)[C@H](CCCCN)NC(=O)[C@@H](Cc2c[nH]c3ccccc23)NC(=O)[C@H](Cc2ccc(O)cc2)NC1=O
output_unit: nM
Ki: 0.3
--
compound: C[C@@H](O)[C@@H]1NC(=O)[C@H](CCCNC(=N)N)NC(=O)[C@@H](Cc2c[nH]c3ccccc23)NC(=O)[C@H](Cc2ccc(O)cc2)NC(=O)[C@H](NC(=O)[C@@H](N)Cc2ccc([N+](=O)[O-])cc2)CSSC[C@@H](C(=O)N[C@@H](Cc2ccc(O)cc2)C(N)=O)NC1=O [4-NO2 Phe Tyr Arg Thr Tyr] (H-[Phe(4-NO2)][dC]Y[dW]RTCY-NH2; disulfide 2-7 (inferred); N-terminus and C-terminus assumed)
output_unit: nM
Ki: 25

Query :: Entry CC(C)[C@@H]1NC(=O)[C@H](CCCCN)NC(=O)[C@@H](Cc2c[nH]c3ccccc23)NC(=O)[C@H](Cc2ccc(O)cc2)NC(=O)[C@H](NC(=O)[C@@H](N)Cc2ccc3ccccc3c2)CSSC[C@@H](C(=O)N[C@@H](Cc2ccc(O)cc2)C(N)=O)NC1=O [L-Nal(2) Tyr Lys Val Tyr] (H-[2Nal][dC]Y[dW]KVCY-NH2; disulfide 2-7) : reported Ki = ?
Result :: 2.22

====

study_target: rat somatostatin receptor subtype 2 (SSTR2) (Rattus norvegicus)
Construct: expressed in transfected cells; host or cells: Saccharomyces cerevisiae LY364 bearing pJH2 (SSTR2) and pLP82 (G protein)
Sequence (P30680 whole entry): as above
procedure_summary: Yeast assay, somatostatin antagonist activity (zone of no growth in presence of S-14)
Format: cell-based
Design: key: 1 is minimum antagonist activity; 5 is maximum antagonist activity; --: When no activity is observed, the result is indicated by a dash
condition_info: rating on a scale of 1-5 from zone of no growth; 5 μL of 1 mg/mL S-14 added to each plate
Positions of bridges follow the written chain, without caps; N, C: chain ends. Non-standard residues stand in square brackets, D forms with d. Residues, ends and D or L forms follow the SMILES beside them. Phe(4-NO2) = N[C@@H](Cc1ccc([N+](=O)[O-])cc1)C(=O)O; 2Nal = N[C@@H](Cc1ccc2ccccc2c1)C(=O)O; Orn = NCCC[C@H](N)C(=O)O
measured_attribute: Yeast Assay Antagonist
One number for each entry.

Guide cases for Yeast Assay Antagonist, answers given:
compound: C[C@@H](O)[C@@H]1NC(=O)[C@H](CCCCN)NC(=O)[C@@H](Cc2c[nH]c3ccccc23)NC(=O)[C@H](Cc2ccc(O)cc2)NC(=O)[C@H](NC(=O)[C@@H](N)Cc2ccc(I)cc2)CSSC[C@@H](C(=O)N[C@@H](Cc2ccc(O)cc2)C(N)=O)NC1=O [4-IPhe Tyr Lys Thr Tyr]
Yeast Assay Antagonist: 5
--
compound: CC(=O)N[C@@H](Cc1ccc2ccccc2c1)C(=O)N[C@@H]1CSSC[C@@H](C(=O)N[C@@H](Cc2ccc(O)cc2)C(N)=O)NC(=O)[C@H]([C@@H](C)O)NC(=O)[C@H](CCCCN)NC(=O)[C@@H](Cc2c[nH]c3ccccc23)NC(=O)[C@H](Cc2ccc(O)cc2)NC1=O [Ac-Nal(2) Tyr Lys Thr Tyr] (Ac-[2Nal][dC]Y[dW]KTCY-NH2; disulfide 2-7 (inferred); N-terminus and C-terminus assumed)
Yeast Assay Antagonist: 1

Fill in Yeast Assay Antagonist for each of the 3 compounds listed.
1. CC(C)[C@@H]1NC(=O)[C@H](CCCCN)NC(=O)[C@@H](Cc2c[nH]c3ccccc23)NC(=O)[C@H](Cc2ccc(O)cc2)NC(=O)[C@H](NC(=O)[C@@H](N)Cc2ccc([N+](=O)[O-])cc2)CSSC[C@@H](C(=O)N[C@@H](Cc2ccc3ccccc3c2)C(N)=O)NC1=O [4-NO2 Phe Tyr Lys Val Nal(2)] (H-[Phe(4-NO2)][dC]Y[dW]KVC[2Nal]-NH2; disulfide 2-7 (inferred); N-terminus and C-terminus assumed)
2. CC(C)[C@@H]1NC(=O)[C@H](CCCN)NC(=O)[C@@H](Cc2c[nH]c3ccccc23)NC(=O)[C@H](Cc2ccc(O)cc2)NC(=O)[C@H](NC(=O)[C@@H](N)Cc2ccc([N+](=O)[O-])cc2)CSSC[C@@H](C(=O)N[C@@H](Cc2ccc(O)cc2)C(N)=O)NC1=O [4-NO2 Phe Tyr Orn Val Tyr] (H-[Phe(4-NO2)][dC]Y[dW][Orn]VCY-NH2; disulfide 2-7 (inferred); N-terminus and C-terminus assumed)
3. C[C@@H](O)[C@@H]1NC(=O)[C@H](CCCNC(=N)N)NC(=O)[C@@H](Cc2c[nH]c3ccccc23)NC(=O)[C@H](Cc2ccc(O)cc2)NC(=O)[C@H](NC(=O)[C@@H](N)Cc2ccc([N+](=O)[O-])cc2)CSSC[C@@H](C(=O)N[C@@H](Cc2ccc(O)cc2)C(N)=O)NC1=O [4-NO2 Phe Tyr Arg Thr Tyr] (H-[Phe(4-NO2)][dC]Y[dW]RTCY-NH2; disulfide 2-7 (inferred); N-terminus and C-terminus assumed)

Result ::
1. 2
2. 1
3. 2
